Collected logP values appear next to each entry.
ATTRIBUTE MEASURED: logP

{"columns": ["SMILES", "ATTRIBUTE MEASURED", "MEASURED VALUE"],
 "data": [
  ["Clc1cc(Oc2c(Cl)ccc(Cl)c2Cl)c(Cl)c(Cl)c1Cl", "logP", 6.98],
  ["Clc1ccc(Oc2cc(Cl)cc(Cl)c2Cl)c(Cl)c1", "logP", 6.54],
  ["Clc1cccc(Oc2ccccc2)c1", "logP", 4.75],
  ["Clc1ccc(Oc2cccc(Cl)c2Cl)cc1", "logP", 5.63],
  ["Clc1ccc(Oc2c(Cl)c(Cl)c(Cl)c(Cl)c2Cl)c(Cl)c1Cl", "logP", 7.84],
  ["Clc1ccc(Cl)c(Oc2ccc(Cl)c(Cl)c2)c1", "logP", 6.11],
  ["Clc1ccc(Oc2ccc(Cl)cc2)cc1", "logP", 5.25],
  ["Clc1ccc(Oc2ccccc2)cc1", "logP", 4.7],
  ["Clc1ccc(Oc2cc(Cl)cc(Cl)c2)cc1", "logP", 5.77],
  ["Clc1cc(Cl)cc(Oc2cc(Cl)c(Cl)cc2Cl)c1", "logP", 6.66],
  ["Clc1ccc(Oc2cc(Cl)ccc2Cl)cc1", "logP", 5.66],
  ["Clc1ccc(Oc2ccc(Cl)cc2Cl)cc1", "logP", 5.53],
  ["Clc1ccc(Oc2cccc(Cl)c2)cc1", "logP", 5.13]
]}

====

# thresholds on logP define classes: class A = under 6, class B = from 6 up to 7, class C = 7 and over

{"columns": ["SMILES", "ANSWER LABEL"],
 "data": [
  ["Clc1ccc(Oc2ccccc2Cl)c(Cl)c1", "class A"],
  ["Clc1ccc(Oc2cc(Cl)c(Cl)c(Cl)c2Cl)c(Cl)c1Cl", "class C"],
  ["Clc1cc(Cl)c(Oc2ccc(Cl)c(Cl)c2)c(Cl)c1", "class B"],
  ["Clc1ccc(Oc2cc(Cl)c(Cl)c(Cl)c2Cl)cc1", "class B"],
  ["Clc1cccc(Oc2ccc(Cl)cc2Cl)c1", "class A"],
  ["Clc1cccc(Cl)c1Oc1ccccc1", "class A"],
  ["Clc1cc(Cl)cc(Oc2ccc(Cl)c(Cl)c2Cl)c1", "class B"],
  ["Clc1ccc(Cl)c(Oc2ccccc2)c1", "class A"],
  ["Clc1cc(Cl)c(Oc2cc(Cl)c(Cl)cc2Cl)cc1Cl", "class B"],
  ["Clc1cc(Oc2c(Cl)c(Cl)c(Cl)c(Cl)c2Cl)c(Cl)c(Cl)c1Cl", "class C"],
  ["Clc1ccc(Oc2c(Cl)c(Cl)c(Cl)c(Cl)c2Cl)cc1Cl", "class C"],
  ["Clc1ccc(Oc2ccc(Cl)c(Cl)c2)cc1Cl", "class B"],
  ["Clc1ccc(Oc2c(Cl)cccc2Cl)cc1Cl", "class A"],
  ["Clc1ccc(Oc2c(Cl)cc(Cl)c(Cl)c2Cl)cc1", "class B"],
  ["Clc1cc(Cl)c(Oc2cc(Cl)c(Cl)c(Cl)c2Cl)cc1Cl", "class C"],
  ["Clc1ccccc1Oc1ccc(Cl)c(Cl)c1Cl", "class A"],
  ["Clc1ccc(Oc2c(Cl)c(Cl)cc(Cl)c2Cl)cc1", "class B"],
  ["Clc1ccc(Oc2cc(Cl)c(Cl)c(Cl)c2Cl)c(Cl)c1", "class B"],
  ["Clc1ccc(Oc2c(Cl)c(Cl)cc(Cl)c2Cl)cc1Cl", "class B"]
]}
